assay: Cytotoxicity against human HeLa cells assessed as decrease in cell viability after 72 hrs by MTT assay; type: cell-based
Test Readout: CC50 at 72 h (µM)

• C=CC(O)C#CC#C/C=C/C(O)CCCCCCCCO (configuration not stated) = 107
• COc1ccc(/C=C/CO)cc1 = 189
• C=C[C@H](O)C#CC#CC/C=C\CCCCCCCCO = 14.6
• COc1ccc(/C=C/CO)cc1OC = 160
• C/C=C(/C)C(=O)OC/C(=C/C)C(=O)OC/C=C/c1ccc(OC)c(OC)c1 = 20.3
• CC(C)[C@@H]1CCC(C=O)=C[C@H]1O = 47.6
• C/C=C(/C)C(=O)OC/C=C/c1ccc(OC)c(OC)c1 = 453
